Target or test system: human (hACC2) (Homo sapiens, UniProt O00763)
Sequence (O00763 whole entry): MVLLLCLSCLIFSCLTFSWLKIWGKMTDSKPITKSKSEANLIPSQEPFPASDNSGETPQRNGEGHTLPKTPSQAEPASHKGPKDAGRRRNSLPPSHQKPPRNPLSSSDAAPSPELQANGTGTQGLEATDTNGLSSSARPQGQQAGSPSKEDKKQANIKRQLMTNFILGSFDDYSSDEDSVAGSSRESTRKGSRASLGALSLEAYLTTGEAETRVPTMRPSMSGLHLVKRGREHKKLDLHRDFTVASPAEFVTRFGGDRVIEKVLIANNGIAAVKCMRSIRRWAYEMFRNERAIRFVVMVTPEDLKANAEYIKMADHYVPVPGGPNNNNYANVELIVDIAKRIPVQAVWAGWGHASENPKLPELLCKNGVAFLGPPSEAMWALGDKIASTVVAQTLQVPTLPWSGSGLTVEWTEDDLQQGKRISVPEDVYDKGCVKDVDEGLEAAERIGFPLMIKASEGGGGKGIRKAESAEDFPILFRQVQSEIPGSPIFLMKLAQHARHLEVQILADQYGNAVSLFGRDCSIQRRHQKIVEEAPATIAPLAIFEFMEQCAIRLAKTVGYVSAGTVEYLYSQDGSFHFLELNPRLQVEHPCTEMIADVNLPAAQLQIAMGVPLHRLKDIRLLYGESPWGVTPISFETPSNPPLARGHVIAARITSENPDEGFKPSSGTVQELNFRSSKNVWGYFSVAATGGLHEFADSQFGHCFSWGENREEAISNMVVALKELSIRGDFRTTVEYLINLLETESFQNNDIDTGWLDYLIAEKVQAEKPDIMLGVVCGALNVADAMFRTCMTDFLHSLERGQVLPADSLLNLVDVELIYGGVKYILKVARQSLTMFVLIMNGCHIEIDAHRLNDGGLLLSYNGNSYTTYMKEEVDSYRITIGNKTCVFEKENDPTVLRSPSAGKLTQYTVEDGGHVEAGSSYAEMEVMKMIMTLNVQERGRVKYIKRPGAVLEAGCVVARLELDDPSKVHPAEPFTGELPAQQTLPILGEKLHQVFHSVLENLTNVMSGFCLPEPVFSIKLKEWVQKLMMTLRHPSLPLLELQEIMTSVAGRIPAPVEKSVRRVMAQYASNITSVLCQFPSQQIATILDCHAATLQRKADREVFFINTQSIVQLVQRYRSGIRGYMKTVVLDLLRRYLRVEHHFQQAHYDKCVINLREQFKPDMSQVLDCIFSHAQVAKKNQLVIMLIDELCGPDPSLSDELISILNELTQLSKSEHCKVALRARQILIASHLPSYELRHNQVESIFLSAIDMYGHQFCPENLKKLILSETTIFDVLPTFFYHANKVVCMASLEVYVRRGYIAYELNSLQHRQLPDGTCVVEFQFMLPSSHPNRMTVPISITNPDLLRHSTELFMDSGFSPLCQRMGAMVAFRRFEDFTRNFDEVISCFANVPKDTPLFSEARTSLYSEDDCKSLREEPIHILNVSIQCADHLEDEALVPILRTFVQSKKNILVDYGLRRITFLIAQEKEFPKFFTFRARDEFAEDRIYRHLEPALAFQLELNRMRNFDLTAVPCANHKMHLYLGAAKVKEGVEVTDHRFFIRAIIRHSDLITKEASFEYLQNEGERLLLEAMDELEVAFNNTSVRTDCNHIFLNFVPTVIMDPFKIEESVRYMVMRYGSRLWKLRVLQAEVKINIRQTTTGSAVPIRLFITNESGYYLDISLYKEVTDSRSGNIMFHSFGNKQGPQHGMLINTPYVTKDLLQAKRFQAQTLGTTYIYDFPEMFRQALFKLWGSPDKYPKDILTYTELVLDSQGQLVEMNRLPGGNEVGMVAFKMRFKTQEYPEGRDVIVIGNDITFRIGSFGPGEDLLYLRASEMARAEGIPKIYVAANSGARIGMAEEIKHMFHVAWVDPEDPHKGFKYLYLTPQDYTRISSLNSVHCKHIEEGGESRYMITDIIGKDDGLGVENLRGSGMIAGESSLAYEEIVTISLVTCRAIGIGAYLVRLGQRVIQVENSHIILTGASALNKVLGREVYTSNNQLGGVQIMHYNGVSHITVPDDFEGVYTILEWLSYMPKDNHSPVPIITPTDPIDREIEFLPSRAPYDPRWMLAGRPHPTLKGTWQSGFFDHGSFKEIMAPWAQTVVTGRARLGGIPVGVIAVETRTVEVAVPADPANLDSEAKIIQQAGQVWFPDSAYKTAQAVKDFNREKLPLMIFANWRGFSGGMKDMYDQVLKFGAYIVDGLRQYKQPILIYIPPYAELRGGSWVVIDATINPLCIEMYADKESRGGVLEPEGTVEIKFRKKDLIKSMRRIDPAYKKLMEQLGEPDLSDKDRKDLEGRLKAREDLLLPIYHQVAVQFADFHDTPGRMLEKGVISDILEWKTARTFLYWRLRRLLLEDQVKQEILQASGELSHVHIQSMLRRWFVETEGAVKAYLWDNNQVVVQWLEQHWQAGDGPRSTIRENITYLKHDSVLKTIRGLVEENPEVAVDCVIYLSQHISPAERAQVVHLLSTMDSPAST
Procedure text: In vitro ACC inhibition assay (ADP-Glo), hACC2
Format: biochemical
Test settings: Table 2b, additional results, 5 nM ACC2, 20 μM ATP, 20 μM acetyl-CoA
Method: The detailed procedure is as follows. […] 10 μL ADP glo reagent was added. […] 20 μL kinase detection reagent was added.
As shown below, each of these molecules has a reported IC50 value.

Req: Entry COCCCO[C@@H](Cn1c(=O)n(C(C)(C)C(=O)NC(C)C)c(=O)c2c(C)c(-n3nccn3)sc21)c1cc(F)ccc1OC [Compound I-69] has what IC50?
Resp: 5 to 10 nM

Req: Entry COc1ccc(F)cc1[C@H](Cn1c(=O)n(C(C)(C)C(=O)NC(C)C)c(=O)c2c(C)c(-n3nccn3)sc21)OCCN1CC(C#N)C1 [Compound I-146] has what IC50?
Resp: > 40 nM

Req: Entry COc1ccc(F)cc1[C@H](Cn1c(=O)n([C@@H](C)C(=O)NC(C)C)c(=O)c2c(C)c(-n3nccn3)sc21)OCCO [Compound I-88] has what IC50?
Resp: 5 to 10 nM

Req: Entry COc1ccc(F)cc1[C@H](Cn1c(=O)n(C(C)(C)C(=O)N2CCCC2)c(=O)c2c(C)c(-n3nccn3)sc21)OC(C)C [Compound I-7] has what IC50?
Resp: 5 to 10 nM

Req: Entry COc1ccc(F)cc1[C@H](Cn1c(=O)n([C@H](C)C(=O)N(C)C(C)C)c(=O)c2c(C)c(-n3nccn3)sc21)OCCO [Compound I-85] has what IC50?
Resp: 10 to 40 nM

Req: Entry COc1ccc(F)cc1[C@H](Cn1c(=O)n(C(C)(C)C(=O)NC(C)C)c(=O)c2c(C)c(-n3nccn3)sc21)O[C@H]1CC[C@@H](C#N)CC1 [Compound I-158] has what IC50?
Resp: 10 to 40 nM

FYI, the data here is from patent US10800791B2.
